Where these numbers come from: the supplement of paper PMC13380429

# Test system: A549-ACE2 infected with SARS-CoV-2
# MEASUREMENT PROTOCOL: SARS-CoV-2 infection rate relative to DMSO; higher = more infection
# PROTOCOL CONDITIONS: 10 µM; 24 h
Measured SARS-CoV-2 infection rate, listed per entry.
Number only, in %; omit the unit.

Answered cases to consult:
[
  {
    "COMPOUND": "NC(=O)c1cnc(N[C@@H]2CCCC[C@@H]2N)nc1Nc1cccc(-n2nccn2)c1",
    "SARS-CoV-2 infection rate / %": 72
  },
  {
    "COMPOUND": "C[S+]([O-])CCCCN=C=S (stereo not given)",
    "SARS-CoV-2 infection rate / %": 79
  },
  {
    "COMPOUND": "CCCC[C@@H](C=O)NC(=O)[C@H](CC(C)C)NC(=O)OCc1ccccc1",
    "SARS-CoV-2 infection rate / %": 13
  },
  {
    "COMPOUND": "c1ccc2c(CCNc3ccc(Nc4ccncc4)cc3)c[nH]c2c1",
    "SARS-CoV-2 infection rate / %": 22
  }
]

// next entry
Observed SARS-CoV-2 infection rate on A549-ACE2 infected with SARS-CoV-2 for CCOC(=O)c1c(C)[nH]c2ccc3c(c12)CN1CCc2cc(OC)ccc2C1O3 (stereo not given) , please. 25

---

# System: HepG2
# MEASUREMENT PROTOCOL: drug sensitivity score (DSS) for viability; higher = more toxic; extreme values may be limits of the assay
# PROTOCOL CONDITIONS: 72 h
As shown below, each of these compounds has a reported drug sensitivity score value.

Known drug sensitivity score results, listed for orientation:
[
  {
    "COMPOUND": "CC(C)(C)NCC(O)CSc1nc(-c2ccc(C(N)=O)s2)cs1 (stereo not given)",
    "MEASUREMENT TARGET": "HepG2",
    "drug sensitivity score": 0
  },
  {
    "COMPOUND": "CS(=O)(=O)N(Cc1ccco1)C[C@@H](O)Cn1c2ccccc2c2ccccc21",
    "MEASUREMENT TARGET": "HepG2",
    "drug sensitivity score": 0
  },
  {
    "COMPOUND": "COc1cccc(-c2cc(NCc3ccc4c(c3)OCO4)nc(N)n2)c1",
    "MEASUREMENT TARGET": "HepG2",
    "drug sensitivity score": 9.8
  },
  {
    "COMPOUND": "CCCC[C@@H](C=O)NC(=O)[C@H](CC(C)C)NC(=O)OCc1ccccc1",
    "MEASUREMENT TARGET": "HepG2",
    "drug sensitivity score": 0
  }
]

Okay, now this compound:
Endpoint output: drug sensitivity score of CCC(C/C=C/c1ccccc1)(c1ccccc1)N(C)CC1CC1 (stereo not given) . Value? 0

---

Listed here are compounds together with their documented cell viability.
# Test system: U2OS
# MEASUREMENT PROTOCOL: cell viability relative to DMSO; higher = less toxic
# PROTOCOL CONDITIONS: 72 h; 1 nM
The reply should be a number in %, with the unit left off.

[
  {
    "COMPOUND": "CN1C(CSCC(F)(F)F)Nc2cc(Cl)c(S(N)(=O)=O)cc2S1(=O)=O (stereo not given) [polythiazide]",
    "MEASUREMENT TARGET": "U2OS",
    "UNIT DESCRIPTOR": "%",
    "cell viability": 98.4
  }
]

Consider the compound shown here: CCOC(=O)[C@@H](C)Oc1ccc(Oc2nc3ccc(Cl)cc3o2)cc1 What is its recorded cell viability? 101

# input compound: COc1cccc(-c2cc(NCc3ccc4c(c3)OCO4)nc(N)n2)c1 ; wanted: its cell viability 92.8

Reported cell viability, compound COP(=O)(OC)OC(c1ccc(Cl)cc1)P(=O)(OC)OC (stereo not given) [mifobate] : ____ 101

What value of cell viability has been recorded for this entry: NCC(O)c1ccc(O)cc1 (stereo not given) 95.1

---

cell viability overview
# Test system: HepG2
# MEASUREMENT PROTOCOL: cell viability relative to DMSO; higher = less toxic
# PROTOCOL CONDITIONS: 72 h; 10 nM
In your response, put the unit directly after the numeric value.

# cell viability lookup, item CNC(=O)[C@@H](c1ccccc1)N1CCc2cc(OC)c(OC)cc2[C@@H]1CCc1ccc(C(F)(F)F)cc1 103%

I'd like to know its cell viability. The compound in question is Nc1ccc(C(=O)NCC(=O)O)cc1 107%

Looking for the measured cell viability of CCCCCCN(CCCCCC)C(=O)Cc1c(-c2ccc(F)cc2)[nH]c2ccccc12 , can you help? 95.2%

What measured cell viability goes with Cc1cnc(-c2cnc(NCCNc3ccc(C#N)cn3)nc2-c2ccc(Cl)cc2Cl)[nH]1 ? 99.3%

Could you tell me which cell viability is on file for Nc1ncnc(Nc2ccc(Cl)cc2)n1 ? 93.9%

Report cell viability for Cc1ccc(C23CNCC2C3)cc1 (stereo not drawn) please. 88.8%

Please report the recorded cell viability for Oc1ccc(C2CNCCc3c2cc(O)c(O)c3Cl)cc1 (stereo not drawn) . 102%

Could you tell me which cell viability is on file for CC1(C)S[C@@H]2[C@H](NC(=O)C(C(=O)O)c3ccccc3)C(=O)N2[C@H]1C(=O)O (stereo partly drawn) ? 100%

---

# System: U2OS
# MEASUREMENT PROTOCOL: cell viability relative to DMSO; higher = less toxic
# PROTOCOL CONDITIONS: 72 h; 10 nM
// values below are reported cell viability
Answer with a number only, understood to be in %.

[
  {
    "MOLECULE": "COc1cc(C(=S)N2CCOCC2)cc(OC)c1OC",
    "MEASUREMENT TARGET": "U2OS",
    "cell viability, %": 103
  },
  {
    "MOLECULE": "COCCOc1ccc2c(c1)ncn2-c1ccc2cccc(N3CCC(N)CC3)c2n1",
    "MEASUREMENT TARGET": "U2OS",
    "cell viability, %": 104
  },
  {
    "MOLECULE": "COc1cc(OC)cc(C(=O)NNC(=O)Nc2cccc3ccccc23)c1",
    "MEASUREMENT TARGET": "U2OS",
    "cell viability, %": 100
  },
  {
    "MOLECULE": "CC(C)(C)OC(=O)c1ncn2c1[C@@H]1CCCN1C(=O)c1c(Br)cccc1-2",
    "MEASUREMENT TARGET": "U2OS",
    "cell viability, %": 98.8
  },
  {
    "MOLECULE": "CCCC[C@H](NC(=O)[C@@H]1[C@@H]2[C@H](CN1C(=O)[C@@H](NC(=O)NC1(CS(=O)(=O)C(C)(C)C)CCCCC1)C(C)(C)C)C2(C)C)C(=O)C(=O)NC1CC1",
    "MEASUREMENT TARGET": "U2OS",
    "cell viability, %": 98.8
  },
  {
    "MOLECULE": "O=c1c(-c2ccc(O)cc2)coc2c([C@@H]3O[C@H](CO)[C@@H](O)[C@H](O)[C@H]3O)c(O)ccc12 [puerarin]",
    "MEASUREMENT TARGET": "U2OS",
    "cell viability, %": 95.2
  },
  {
    "MOLECULE": "Clc1ccccc1CNC[C@H]1CC[C@H](CNCc2ccccc2Cl)CC1",
    "MEASUREMENT TARGET": "U2OS",
    "cell viability, %": 102
  },
  {
    "MOLECULE": "CCN1CCN(Cc2ccc(Nc3ncc(F)c(-c4cc(F)c5nc(C)n(C(C)C)c5c4)n3)nc2)CC1",
    "MEASUREMENT TARGET": "U2OS",
    "cell viability, %": 107
  }
]

Requested read-out cell viability, target or system U2OS, entry NC(=O)C[C@H](N)C(=O)O 95.4

Query the reported cell viability for U2OS; item: CCC(C(=O)O)c1ccc(CC(C)C)cc1 (stereo not given) 95.5

---

# System: U2OS
# MEASUREMENT PROTOCOL: cell viability relative to DMSO; higher = less toxic
# PROTOCOL CONDITIONS: 72 h; 10000 nM
Measured cell viability by item
Reply with just the number (in %).

May I ask what cell viability has been recorded for CCC(=O)OCC(=O)[C@@]1(OC(=O)CC)[C@H](C)C[C@H]2[C@H]3[C@H]([C@@H](O)C[C@@]21C)[C@@]1(C)C=CC(=O)C=C1C[C@H]3Cl [alclometasone-dipropionate] ? 90.8

Could you share which cell viability value was measured for CCCC(=O)C1(c2ccccc2)CCN(C(=O)[C@@H](Cc2ccc(OC)cc2)NC(=O)[C@@H](N)Cc2cncn2C)CC1 ? 97.7

Look at this compound and give its reported cell viability. OC[C@H]1O[C@@H](O[C@@H]2[C@H](O)[C@@H](O)[C@H](O[C@H]3[C@H](O)[C@@H](O)C(O)O[C@@H]3CO)O[C@@H]2CO)[C@H](O)[C@@H](O)[C@H]1O (some centres not stated) 101

Quick one: cell viability for CCOc1nc2cccc(C(=O)O)c2n1Cc1ccc(-c2ccccc2-c2noc(=O)[nH]2)cc1 ? 97.5
